Reference source for all entries: PubChem BioAssay (NCI)

Test system: 786-0 renal
test: NCI-60 one-dose screen, 48 h (100 = growth as untreated, 0 = no growth, -100 = all killed)
conditions: 10 µM unless noted
This is part of a sample that, as a whole, favours compounds with a hit. Of some 83,000 tested, about 20% had one in any assay.
assay metric: growth (%)
Write it as a number; the unit % goes unstated.

Task: Give growth; test system 786-0 renal; molecule CN1C(=O)N(C)C2Nn3c(s/c(=C\c4ccc(Cl)cc4Cl)c3=O)=NC21 (stereo not drawn)
Result: 68.5

Task: Give growth; test system 786-0 renal; molecule COC(=O)[C@H]1CCCN1C(=O)[C@H]1CCCN1C(=O)[C@H](Cc1c[nH]c2ccccc12)NC(=S)Nc1cc(C(F)(F)F)cc(C(F)(F)F)c1
Result: 58.3

Task: Give growth; test system 786-0 renal; molecule COc1ccc(-c2nc(-c3ccccn3)c(-c3ccccn3)n2CC(C)C)cc1OC1CCCC1
Result: 24.5

Task: Give growth; test system 786-0 renal; molecule O=C(Nc1ccc(F)cc1F)c1cc(I)ccc1O
Result: 12.3

Task: Give growth; test system 786-0 renal; molecule O=C1NC(=S)NC(=O)C1=Cc1cn(Cc2cn(Cc3cccc4ccccc34)nn2)c2ccccc12
Result: 115

Others:
Task: Give growth; test system 786-0 renal; molecule NC(=O)CSc1nc(-c2ccc(F)cc2)cc(-c2ccco2)n1
Result: 105

Task: Give growth; test system 786-0 renal; molecule Nc1nonc1-n1nncc1-c1cccnc1
Result: 104

Task: Give growth; test system 786-0 renal; molecule NC1C(N)C(N)C1N (stereo not drawn)
Result: 105

----------
System: KM12 colon
test: NCI-60 one-dose screen, 48 h (100 = growth as untreated, 0 = no growth, -100 = all killed)
conditions: 10 µM unless noted
The panel holds about 83,000 compounds, 20% with a hit somewhere; the sample as a whole holds those more often.
assay metric: growth (%)
Write it as a number; the unit % goes unstated.

In the examples that follow, each entry is paired with its recorded growth.
Task: Please indicate growth recorded for CC(=Nc1ccccc1)C1=C(O)C(Cc2ccc(F)cc2)NC1=O (configuration not stated)
Result: 24.5

Task: Please indicate growth recorded for CN1C(=O)N(C)C2Nn3c(s/c(=C4\C(=O)N(CCc5ccccc5)c5ccccc54)c3=O)=NC21 (configuration not stated)
Result: 66.1

Task: Please indicate growth recorded for COc1ccc(C2NCCc3c2[nH]c2ccccc32)cc1CN1CCN(c2ccc(F)cc2)CC1 (configuration not stated)
Result: 40.4

Task: Please indicate growth recorded for COc1ccc(Cn2c(Br)c3c(c2Br)-c2nc(NC(=O)c4ccc(OC)cc4)sc2CC3)cc1
Result: 79.9

Task: Please indicate growth recorded for COc1ccc(OC)c(N(CCN2C(=O)c3ccccc3C2=O)C(=O)CCl)c1
Result: -11.3

Others:
Task: Please indicate growth recorded for COc1ccc2oc(=O)cc(Cn3cc(Cn4cnc5c4c(=O)n(C)c(=O)n5C)nn3)c2c1
Result: 105

Task: Please indicate growth recorded for COc1ccc(/C=C2\SC(=Nc3ccccc3)NC2=O)cc1
Result: -89.6

----------
Tested on: T-47D breast
test: NCI-60 one-dose screen, 48 h (100 = growth as untreated, 0 = no growth, -100 = all killed)
conditions: 10 µM unless noted
About 83,000 compounds went through this panel and 20% of them were active in at least one assay; those are over-represented in the sample as a whole.
assay metric: growth (%)
Write it as a number; the unit % goes unstated.

Task: Please indicate growth recorded for COc1cccc(C(=O)Cn2cc(/C=C(\C#N)S(=O)(=O)c3ccccc3)c3ccccc32)c1
Result: 91.6

----------
Test system: A549/ATCC NSCLC
test: NCI-60 one-dose screen, 48 h (100 = growth as untreated, 0 = no growth, -100 = all killed)
conditions: 10 µM unless noted
This is part of a sample that, as a whole, favours compounds with a hit. Of some 83,000 tested, about 20% had one in any assay. Active and inactive are the calls of the source. Rule for the calls: active = growth percent below 10; inactive = the rest.
Below: a set of entries, each annotated with reported growth.

Task: Please indicate growth recorded for CC(=O)O[C@@H]1/C=C/C(=O)N[C@@H](C)CCC/C=C/[C@@H]2CCC[C@H]21
Result: 108% (inactive)

Task: Please indicate growth recorded for COc1ccc(C2NCCc3c2[nH]c2ccccc32)cc1CN1CCN(c2ccc(F)cc2)CC1 (centres undefined)
Result: 63.7% (inactive)

Task: Please indicate growth recorded for COc1cccc2c1C=C1CCCCC3=Cc4c(OC)cccc4OC13O2
Result: 45.8% (inactive)

Task: Please indicate growth recorded for CSc1nc2c(c(=O)n1C)N=C1c3ccccc3C(=O)C1C(c1ccccc1)N2 (centres undefined)
Result: 81.6% (inactive)

Task: Please indicate growth recorded for CCOC(=O)c1cc2c(n1Cc1ccccc1OC)-c1oncc1CCC2
Result: 36.6% (inactive)

----------
Tested on: T-47D breast
test: NCI-60 one-dose screen, 48 h
conditions: 10 µM unless noted
Compounds without any hit were thinned out: in the full panel of roughly 83,000, 20% have a hit. Calls of active or inactive are those of the source. The calls were made as follows: active = growth percent below 10; inactive = the rest.
Can you answer with just one of these options? 1 for active, 0 for inactive

Illustrative cases are given below, each with its answer.
Task: Check the results log: what was the call for O=C(Nc1ccc(-c2nc3cc4ccccc4cc3[nH]2)cc1)c1cccc(Br)c1 ?
Result: 0

Task: Check the results log: what was the call for O=c1oc2ccc(F)cc2c(=O)n1-c1ccc(I)cc1F ?
Result: 1

// next entry
Task: Check the results log: what was the call for COc1ccc(-c2nsc3c2NC(=O)CC3c2ccc3c(c2)OCCO3)cc1 (stereo not drawn) ?
Result: 0

----------
System: MDA-MB-435 melanoma
test: NCI-60 one-dose screen, 48 h (100 = growth as untreated, 0 = no growth, -100 = all killed)
conditions: 10 µM unless noted
About 83,000 compounds went through this panel and 20% of them were active in at least one assay; those are over-represented in the sample as a whole.
Below: a set of entries, each annotated with reported growth.
Write it as a number; the unit % goes unstated.

Task: Please indicate growth recorded for Cc1ccc2cc3c(N)c4c(C)ccc(C)c4nc3nc2c1
Result: -70.3

Task: Please indicate growth recorded for CCCCOCc1cc(CN2CCN(C)CC2)c(O)c2ncccc12
Result: 80.8

Task: Please indicate growth recorded for O=NN(Cc1cccnc1)C(=O)NC1CCCCC1
Result: 108

Task: Please indicate growth recorded for O=c1oc2ccc(F)cc2c(=O)n1-c1ccc(Cl)cc1F
Result: 1.54

Task: Please indicate growth recorded for COc1ccc(/C=C2/SC(=O)N(CC(=O)N3CCN(c4cc5c(cc4F)c(=O)c(C(=O)O)cn5C4CC4)CC3)C2=O)cc1
Result: 102

Task: Please indicate growth recorded for FC(F)(F)c1cccc(CNC2CCN(CCc3ccccc3)CC2)c1
Result: 43.6

----------
Below: a set of entries, each annotated with reported growth.
System: SNB-19 CNS
test: NCI-60 one-dose screen, 48 h (100 = growth as untreated, 0 = no growth, -100 = all killed)
conditions: 10 µM unless noted
This is part of a sample that, as a whole, favours compounds with a hit. Of some 83,000 tested, about 20% had one in any assay.
Write it as a number; the unit % goes unstated.

In the examples that follow, each entry is paired with its recorded growth.
Task: Please indicate growth recorded for O=C(Nc1ccc(C23CC4CC(CC(c5ccccc5)(C4)C2)C3)cc1)c1cccs1
Result: 91.9

Task: Please indicate growth recorded for O=C1/C(=C\c2ccc[nH]2)c2ccccc2N1c1ccccc1
Result: 92.2

Others:
Task: Please indicate growth recorded for CN(C)c1ccc(N=Cc2ccc(N3CCOCC3)cc2)cc1
Result: 90.9

Task: Please indicate growth recorded for CCOc1ccc(-c2nonc2NC(=O)c2cccc(C)c2)cc1OCC
Result: 90.7

Task: Please indicate growth recorded for Cc1ccccc1CNC(=O)C1CN(c2ccc(Cl)cc2)N(c2ccc(Cl)cc2)C1=O (stereo not drawn)
Result: 89.5

Task: Please indicate growth recorded for Cn1c(=O)n(C)c2cc(CNCCNc3ccnc4cc(Cl)ccc34)ccc21
Result: 89

Task: Please indicate growth recorded for COc1cc(C=C2C(=O)N(C)C(=O)N(C)C2=O)cc(CN2CCCCC2)c1O
Result: 92.6

Task: Please indicate growth recorded for CC(=O)c1ccc(Nc2nc(NCCO)nc(Nc3ccc(Cl)cc3)n2)cc1
Result: 92.4

----------
Tested on: COLO 205 colon
test: NCI-60 one-dose screen, 48 h
conditions: 10 µM unless noted
The panel holds about 83,000 compounds, 20% with a hit somewhere; the sample as a whole holds those more often. Calls of active or inactive are those of the source. How the source made its calls: active means growth percent below 10; inactive means the rest.
Can you answer with just one of these options? active, inactive

Illustrative cases are given below, each with its answer.
Task: Check the results log: what was the call for CCOc1ccc(Nc2ccnc3cc(Cl)ccc23)cc1 ?
Result: active

Task: Check the results log: what was the call for CCOC(=O)c1cc2c(n1Cc1ccccc1)-c1oncc1CCC2 ?
Result: inactive

Task: Check the results log: what was the call for O=C(Cc1ccccc1)NC(c1ccc(Cl)cc1)c1c(O)ccc2ccccc12 (centres undefined) ?
Result: active

Others:
Task: Check the results log: what was the call for O=C(NC1CCCCC1)C(c1cccs1)N(CCc1ccccc1)C(=O)c1ccco1 (centres undefined) ?
Result: inactive

Task: Check the results log: what was the call for O=c1cc(NC2CCN(CCCc3ccccc3)CC2)c2cc(Cl)ccc2o1 ?
Result: active

Task: Check the results log: what was the call for Nc1ccc(-c2ccc(-c3ccccc3N)c3[nH]c4ccccc4c23)cc1 ?
Result: inactive

Task: Check the results log: what was the call for CCCCc1c(CCC)c(=N)c2ccccc2n1C ?
Result: inactive

Task: Check the results log: what was the call for Nc1no[n+]([O-])c1-c1nnc2c(n1)-c1ccccc1C2=O ?
Result: inactive

Task: Check the results log: what was the call for CCOC(=O)C1=C(C)N=c2s/c(=C\c3cc(Cl)ccc3O)c(=O)n2C1c1ccc(OC)cc1 (centres undefined) ?
Result: inactive

Task: Check the results log: what was the call for O=C1C(Cl)=C(NCc2ccco2)C(=O)c2ccccc21 ?
Result: inactive

Task: Check the results log: what was the call for C[n+]1c2ccccc2nc2ccc(NCCO)cc21 ?
Result: inactive

Task: Check the results log: what was the call for Cn1c2c(c(=O)[nH]c1=O)NC1=C(C(=O)c3ccccc31)C1(C=C(O)c3ccccc31)N2 (centres undefined) ?
Result: inactive

Task: Check the results log: what was the call for Cc1ccc2cc3c(N)c4c(C)ccc(C)c4nc3nc2c1 ?
Result: active

Task: Check the results log: what was the call for O=C(Nc1ccsc1C(=O)NC1CCCCC1)c1ccc(F)cc1 ?
Result: inactive
